System: Herpes simplex II virus
Assay: Back titration plaque assay: PFU counts at stated amounts of compound under test and arginine
Assay type: cell-based, Herpes simplex II virus (BSC cells)
Settings: compound 300 μg/ml; arginine 20 μg/ml
observed.property: P.F.U. Count

                                   molecule  reported_measurement
0  CC(CCN)CC(N)C(=O)O (stereo not drawn) [4-Methyl lysine]            3.1 × 10^5
1  CC(N)CCCC(N)C(=O)O (stereo not drawn) [6-Methyl lysine]            5.0 × 10^3
2  CC(CN)CC[C@H](N)C(=O)O (stereo partly drawn) [5-Methyl lysine]            5.6 × 10^4

###

Tested on: HSV, Type II
Experiment: Direct plaque-forming unit (PFU) count in BSC cells in defined media with set lysine (or derivative):arginine ratio
Assay type: cell-based
Settings: Compound Ratio to Arginine 10:1; average of three tests
observed.property: P.F.U. Count

>>> print(df.to_string())
                                   compound  subject_of_test  observed_property  reported_measurement
0  NCCCCCC(N)C(=O)O (stereo not drawn) [drawing 16]     HSV, Type II       P.F.U. Count                    <5
1  CC(N)CCCCC(N)C(=O)O (stereo not drawn) [drawing 15]     HSV, Type II       P.F.U. Count                    <5
2     CC(N)CCCC(N)C(=O)O (stereo not drawn)     HSV, Type II       P.F.U. Count                    <5

###

In this section we review reported P.F.U. Count values for a set of molecules.
System: Herpes simplex II virus
Assay: Back titration plaque assay: PFU counts at stated amounts of compound under test and arginine
Assay type: cell-based, Herpes simplex II virus (BSC cells)
Details: compound 200 μg/ml; arginine 20 μg/ml
observed.property: P.F.U. Count

In [3]: df
Out[3]:
                                   molecule  reported_measurement
0     CC(N)CCCC(N)C(=O)O (stereo not drawn)            6.9 × 10^4
1     CC(CCN)CC(N)C(=O)O (stereo not drawn)            3.2 × 10^5
2  CC(CN)CC[C@H](N)C(=O)O (stereo partly drawn)            2.7 × 10^5
